# assayed.system: truncated Polθ protein (Polθ-Hel containing the helicase domain (67-894)) (Homo sapiens (Human), UniProt O75417)
# Sequence (O75417 67-894): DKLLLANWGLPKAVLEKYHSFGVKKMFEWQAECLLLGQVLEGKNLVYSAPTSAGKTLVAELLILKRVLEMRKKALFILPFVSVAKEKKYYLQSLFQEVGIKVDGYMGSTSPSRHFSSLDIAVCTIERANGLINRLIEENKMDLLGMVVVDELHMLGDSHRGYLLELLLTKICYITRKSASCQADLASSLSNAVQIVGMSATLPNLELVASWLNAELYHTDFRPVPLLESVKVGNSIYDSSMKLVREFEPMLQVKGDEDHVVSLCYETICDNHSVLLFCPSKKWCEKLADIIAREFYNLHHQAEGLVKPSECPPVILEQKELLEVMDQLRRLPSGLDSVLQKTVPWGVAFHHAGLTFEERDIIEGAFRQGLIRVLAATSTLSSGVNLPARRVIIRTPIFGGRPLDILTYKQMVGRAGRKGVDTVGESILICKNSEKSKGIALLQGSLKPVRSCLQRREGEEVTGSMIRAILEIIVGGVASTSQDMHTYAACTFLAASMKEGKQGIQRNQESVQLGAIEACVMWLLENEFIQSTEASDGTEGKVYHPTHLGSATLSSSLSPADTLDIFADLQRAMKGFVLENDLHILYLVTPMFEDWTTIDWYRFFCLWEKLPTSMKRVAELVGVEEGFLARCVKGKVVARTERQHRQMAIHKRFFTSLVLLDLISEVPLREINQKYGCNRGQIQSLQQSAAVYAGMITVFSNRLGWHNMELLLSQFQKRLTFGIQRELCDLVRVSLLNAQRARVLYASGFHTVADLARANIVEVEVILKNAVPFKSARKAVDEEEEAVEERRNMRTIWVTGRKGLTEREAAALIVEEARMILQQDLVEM
# run.description: Polθ ATPase assay (Biological Assay 1, ADP-Glo luminescence)
# Assay type: biochemical
# experimental.parameters: Table B; compounds of Experimental Part B, in vitro; read-out: Polθ ATPase assay IC50
# Description: The Polθ ATPase assay was used to evaluate inhibitors of Polθ ATPase activity, in vitro. […] Luminescence was then measured using Tecan F200 infinite plate reader. Raw data were analysed using GeneData to generate IC50 values. […]
pIC50: −log10 of the molar value.
Answer each item with its documented pIC50.

Exercise: State the recorded pIC50 for this entry: COc1cnc(Cl)cc1-c1cc(C)ncc1C(=O)Nc1nc2cc(OCC3CS(=O)(=O)C3)ccc2s1 [Example 113]
Solution: 6.00 to 7.00

Exercise: State the recorded pIC50 for this entry: COc1cnc(Cl)cc1-c1cc(C)ncc1C(=O)Nc1nc2cnc(NCC(C)(C)O)cc2s1 [Example 130]
Solution: > 7.00

Exercise: State the recorded pIC50 for this entry: COc1cnc(Cl)cc1-c1cc(C)ncc1C(=O)Nc1nc2cc(OCCO)ccc2s1 [Example 124]
Solution: > 7.00

Exercise: State the recorded pIC50 for this entry: COc1cnc(Cl)cc1-c1cc(C)ncc1C(=O)Nc1nc2c(C)nc(N3CCC(O)CC3)nc2s1 [Example 132]
Solution: > 7.00

----------
Answer each item with its documented IC50.
# assayed.system: truncated Polθ protein (Polθ-Hel containing the helicase domain (67-894)) (Homo sapiens (Human), UniProt O75417)
# run.description: Polθ ATPase assay (Biological Assay 1, ADP-Glo luminescence)
# Assay type: biochemical
# experimental.parameters: Polθ-Hel 0.5 nM, DNA substrate 500 nM, ATP 60 μM, 23° C.; read-out: Pole ATPase assay IC50

Exercise: State the recorded IC50 for this entry: `COc1cnc(Cl)cc1-c1cc(C)ncc1C(=O)Nc1nc2ccc(Br)cc2s1`
Solution: < 100 nM

Exercise: State the recorded IC50 for this entry: `COc1cnc(Cl)cc1-c1cc(C)ncc1C(=O)Nc1nc2cnc(N3CC[C@@H](O)C3)nc2s1`
Solution: < 100 nM

Exercise: State the recorded IC50 for this entry: `COc1cnc(Cl)cc1-c1cc(C)ncc1C(=O)Nc1nc2cnc(N3CCOCC3)nc2s1`
Solution: < 100 nM

Exercise: State the recorded IC50 for this entry: `COc1cnc(Cl)cc1-c1cc(C)ncc1C(=O)Nc1nc2cnc(N3CCCCC3=O)nc2s1`
Solution: < 100 nM

Exercise: State the recorded IC50 for this entry: `COc1ccccc1-c1cnccc1C(=O)Nc1nc2cnccc2s1`
Solution: > 1000 nM

Exercise: State the recorded IC50 for this entry: `COc1cnc(Cl)cc1-c1cc(C)ncc1C(=O)Nc1nc2cnc(N3CCCC3)nc2s1`
Solution: < 100 nM

Exercise: State the recorded IC50 for this entry: `COCCNc1ncc2nc(NC(=O)c3cnc(C)cc3-c3cc(Cl)ncc3OC)sc2n1`
Solution: < 100 nM

Exercise: State the recorded IC50 for this entry: `COc1cnc(Cl)cc1-c1cc(C)ncc1C(=O)Nc1nc2cnc(N3CCC(F)(F)CC3)nc2s1`
Solution: < 100 nM

Exercise: State the recorded IC50 for this entry: `COc1ccccc1-c1cnccc1C(=O)Nc1nc2ccc(-c3ccc(Cl)cn3)cc2s1`
Solution: 100 to 1000 nM

Exercise: State the recorded IC50 for this entry: `COc1cnc(Cl)cc1-c1cc(C)ncc1C(=O)Nc1nc2cc(Cl)ncc2s1`
Solution: < 100 nM

Exercise: State the recorded IC50 for this entry: `COc1ccccc1-c1cnccc1C(=O)Nc1nc2ccc(Br)cc2s1`
Solution: 100 to 1000 nM

Exercise: State the recorded IC50 for this entry: `COc1cnc(Cl)cc1-c1cc(C)ncc1C(=O)Nc1nc2ccc(N3CCCC3=O)cc2s1`
Solution: < 100 nM

Exercise: State the recorded IC50 for this entry: `COc1cnc(Cl)cc1-c1cc(C)ncc1C(=O)Nc1nc2ncc(N3CCCCC3=O)cc2s1`
Solution: < 100 nM

Exercise: State the recorded IC50 for this entry: `COc1cnc(Cl)cc1-c1cc(C)ncc1C(=O)Nc1nc2ccc(-c3ccc(Cl)cn3)cc2s1`
Solution: < 100 nM

Exercise: State the recorded IC50 for this entry: `COc1cnc(Cl)cc1-c1cc(C)ncc1C(=O)Nc1nc2ccc(N3CCOCC3=O)cc2s1`
Solution: < 100 nM

Exercise: State the recorded IC50 for this entry: `COc1cnc(Cl)cc1-c1cc(C)ncc1C(=O)Nc1nc2ccc(N3CCOCC3)cc2s1`
Solution: < 100 nM

Exercise: State the recorded IC50 for this entry: COc1cnc(Cl)cc1-c1cc(C)ncc1C(=O)Nc1nc2cnc(NC3CCC(O)CC3)nc2s1 (stereo not drawn)
Solution: < 100 nM

Exercise: State the recorded IC50 for this entry: `COc1ccccc1-c1cnccc1C(=O)Nc1nc2cccnc2s1`
Solution: > 1000 nM

Exercise: State the recorded IC50 for this entry: `COc1cnc(Cl)cc1-c1cc(C)ncc1C(=O)Nc1nc2cnc(N3CC4(CCOC4)C3)nc2s1`
Solution: < 100 nM

Exercise: State the recorded IC50 for this entry: `COc1cnc(C)cc1-c1cc(C)ncc1C(=O)Nc1nc2cnc(N3CCOCC3)nc2s1`
Solution: < 100 nM

Exercise: State the recorded IC50 for this entry: `COc1cnc(Cl)cc1-c1cc(C)ncc1C(=O)Nc1nc2ccc(S(=O)(=O)N(C)C)cc2s1`
Solution: < 100 nM

Exercise: State the recorded IC50 for this entry: `COc1cnc(Cl)cc1-c1cc(C)ncc1C(=O)Nc1nc2cnc(N3C[C@@H]4C[C@H]3CO4)nc2s1`
Solution: < 100 nM

Exercise: State the recorded IC50 for this entry: `COc1cnc(Cl)cc1-c1cc(C)ncc1C(=O)Nc1nc2cncnc2s1`
Solution: < 100 nM

Exercise: State the recorded IC50 for this entry: `COc1cnc(Cl)cc1-c1cc(C)ncc1C(=O)Nc1nc2ccc(N3CCN(C)CC3=O)cc2s1`
Solution: < 100 nM

Exercise: State the recorded IC50 for this entry: `COc1ccccc1-c1cnccc1C(=O)Nc1nc2ncccc2s1`
Solution: > 1000 nM

Exercise: State the recorded IC50 for this entry: `COc1cnc(Cl)cc1-c1cc(C)ncc1C(=O)Nc1nc2ccc(SC)cc2s1`
Solution: < 100 nM

Exercise: State the recorded IC50 for this entry: `COc1cnc(Cl)cc1-c1cc(C)ncc1C(=O)Nc1nc2ccc(N3CCC(O)CC3)nc2s1`
Solution: < 100 nM

Exercise: State the recorded IC50 for this entry: `COc1cnc(Cl)cc1-c1cc(C)ncc1C(=O)Nc1nc2cnc(N3CCC(O)CC3)nc2s1`
Solution: < 100 nM

Exercise: State the recorded IC50 for this entry: `COc1cnc(Cl)cc1-c1cc(C)ncc1C(=O)Nc1nc2cnc(NCCO)nc2s1`
Solution: < 100 nM

Exercise: State the recorded IC50 for this entry: COc1cnc(Cl)cc1-c1cc(C)ncc1C(=O)Nc1nc2cnc(N3CCCC(C#N)C3)nc2s1 (stereo not drawn)
Solution: < 100 nM

Exercise: State the recorded IC50 for this entry: `COc1cnc(Cl)cc1-c1cc(C)ncc1C(=O)Nc1nc2cnc(NC(C)C)nc2s1`
Solution: < 100 nM

Exercise: State the recorded IC50 for this entry: `COc1cnc(Cl)cc1-c1cc(C)ncc1C(=O)Nc1nc2cnc(N3CCC(F)(F)C3)nc2s1`
Solution: < 100 nM

Exercise: State the recorded IC50 for this entry: COc1cnc(Cl)cc1-c1cc(C)ncc1C(=O)Nc1nc2ccc(N)cc2s1 [Example 36A]
Solution: 100 to 1000 nM
